Would you mind telling me the reported cytotoxicity at 70.5 h of each entry?
ASSAY_OVERVIEW: Human HepG2 cell viability assay in 384 well format
Assay type: toxicity, cell-based
Set-up: dose 125 nL, time 70.5 hour; concentration not given beside the values
RUN_CONDITIONS: HepG2 cells, read-out: Inhibition
# number only, unit % dropped from output

Fill in: cytotoxicity at 70.5 h of COCCNC(=O)c1ccc2c(=O)n3c(nc2c1)CCCC3 is ___
-2.97

Look up cytotoxicity at 70.5 h: COc1ccccc1CC(C)(C)NC(=O)CNS(C)(=O)=O
-2.04

Which cytotoxicity at 70.5 h reading was recorded for the molecule O=C(C1CC1)N1CCCCCC1C1CCN(c2ncccn2)CC1 (centres undefined) ?
-9.64

Query: cytotoxicity at 70.5 h; subject: CNC(=O)C1CN(C)CCN(CCCOc2ccccc2F)C1 (centres undefined)
-3.84

Can you share its cytotoxicity at 70.5 h? I mean this molecule: Nc1ccnc(N2C[C@H](O)[C@@H](N3CCN(c4ccccn4)CC3)C2)n1
-17.6

# query: cytotoxicity at 70.5 h of entry COCC1CN(c2ccncn2)Cc2cnn(CC3CCCC3)c21 (centres undefined)
-11.3

So what does the record say about cytotoxicity at 70.5 h for COCc1nc(N(C)CCSc2ccccc2)c2cnn(C)c2n1 ?
-5.78

What value of cytotoxicity at 70.5 h has been recorded for this entry: CC(C)(C)c1cc(C[C@H]2CNCC[C@H]2CC(=O)Nc2ccccc2)no1
-2.1

Entry under review: O=C(CCN1CCc2ccccc21)N1C[C@@H](O)[C@H](N2CCCC2)C1 . Reported cytotoxicity at 70.5 h?
-7.06
